I'd be grateful if you could share measured inhibition for these entries.
Target: Caspase-6 (Homo sapiens) (UniProt P55212)
Sequence (P55212 24-179 limits assumed): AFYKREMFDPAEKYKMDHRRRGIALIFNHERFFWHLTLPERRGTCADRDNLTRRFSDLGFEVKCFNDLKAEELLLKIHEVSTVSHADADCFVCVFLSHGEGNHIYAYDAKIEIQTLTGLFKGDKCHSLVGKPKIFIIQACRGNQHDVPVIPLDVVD
Sequence (P55212 194-293 limits assumed): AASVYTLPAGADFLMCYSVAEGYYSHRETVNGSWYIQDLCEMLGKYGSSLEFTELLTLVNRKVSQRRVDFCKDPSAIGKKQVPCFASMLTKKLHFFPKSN
Assay: human caspase-6 inhibitors, primary screen, biochemical, VEID-R110 fluorescence, single point, set 2 (AID 686996);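 also: 0% = median of neutral control wells and 100% = no fluorescence left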
Settings: purified caspase-6, Z-VEID-R110 cleavage fluorescence; at 12.5 µM; hits give high values
The campaign covered roughly 350,000 compounds. About 1,900 (0.54%) were called active. The entries come from a sample that favours actives as a whole.
Supply the numeric figure in %, leaving out any unit text.

(Q) What inhibition value was documented for this compound, "C[C@@H]1CN([C@H](C)CO)C(=O)Cc2cc(NC(=O)CCN3CCOCC3)ccc2O[C@H]1CN(C)C" ?
(A) 0.558

(Q) What inhibition value was documented for this compound, CC1CCCN(C(=O)c2cc(-c3ccco3)nc3ccccc23)C1 (stereo not drawn) ?
(A) 2.88

(Q) What inhibition value was documented for this compound, "O=C(c1ccc2c(c1)OCO2)N1CC(=O)N2[C@H](C1)[C@@H](c1ccc(C#Cc3ccccc3)cc1)[C@@H]2CO" ?
(A) -1.08
